Can you tell me IC50 for the items I'm about to list?
Biological target: Proteasome Macropain subunit MB1 (Homo sapiens, UniProt P28074)
Sequence (P28074 whole entry): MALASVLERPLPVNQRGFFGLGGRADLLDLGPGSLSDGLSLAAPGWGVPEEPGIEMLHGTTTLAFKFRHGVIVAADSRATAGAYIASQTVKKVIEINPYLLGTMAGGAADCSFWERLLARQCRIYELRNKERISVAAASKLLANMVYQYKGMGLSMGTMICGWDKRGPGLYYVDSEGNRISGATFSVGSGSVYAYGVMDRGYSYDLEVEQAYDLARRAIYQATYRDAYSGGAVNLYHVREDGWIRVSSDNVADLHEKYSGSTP
Assay: Inhibition of human constitutive 20S proteasome beta 5 chymotrypsin-like activity
Your answer is read as µM, so omit the unit and give the number.

Query block: Value lookup for IC50; key = C[C@H](NC(=O)[C@H](CC(=O)NOC(C)(C)C)NC(=O)CCc1ccccc1)C(=O)NCc1ccnc2ccccc12
Result block: 59

Query block: Endpoint output: IC50 of C[C@H](NC(=O)[C@H](CC(=O)NOC(C)(C)C)NC(=O)CCc1ccccc1)C(=O)NCc1cccc2[nH]ccc12 . Value?
Result block: 0.17

Query block: What does the data say about its IC50? Entry: COC[C@H](NC(=O)[C@H](CC(=O)NOC(C)(C)C)NC(=O)CCc1ccccc1)C(=O)NCc1cccc2c1NCCC2
Result block: 27.2

// data source = ChEMBL document CHEMBL4699588
